- Target desc: porcine pancreatic α-amylase (Sus scrofa, UniProt P00690)
- Sequence (P00690 16-511): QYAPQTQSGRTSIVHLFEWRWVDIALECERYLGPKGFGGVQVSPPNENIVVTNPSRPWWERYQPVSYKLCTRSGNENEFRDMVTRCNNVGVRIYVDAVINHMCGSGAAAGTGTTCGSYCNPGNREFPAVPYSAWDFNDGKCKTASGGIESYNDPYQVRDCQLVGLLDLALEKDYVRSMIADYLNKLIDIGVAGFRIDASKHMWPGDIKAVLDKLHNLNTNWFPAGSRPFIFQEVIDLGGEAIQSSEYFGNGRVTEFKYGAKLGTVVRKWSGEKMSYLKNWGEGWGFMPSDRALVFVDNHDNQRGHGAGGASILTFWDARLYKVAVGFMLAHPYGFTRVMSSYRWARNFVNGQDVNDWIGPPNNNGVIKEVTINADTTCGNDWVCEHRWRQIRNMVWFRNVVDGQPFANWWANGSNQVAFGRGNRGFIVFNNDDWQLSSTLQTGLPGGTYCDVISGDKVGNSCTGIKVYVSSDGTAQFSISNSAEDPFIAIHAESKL
- Assay notes: starch hydrolysis by α-amylase monitored by isothermal titration calorimetry (ITC)
- Format: biochemical
- Condition description: calculated based on the mass concentration; read-out: Kiu [g/L] (converted)
- Protocol: The amylase stock solution was diluted each day and stored during the day at 4 °C. The experiments were conducted using an Affinity ITC LV instrument with a cell volume of 182 μL (TA Instruments, Eschborn, Germany). […] Enzyme kinetic constants were determined at 310 K. The heat released during starch conversion was continuously monitored, with calculations performed using Microsoft Excel® software. […] (dQ/dt)max [%], ΔRHapp [%] und vmax [%] are calculated in relation to daily control. […]
Quantity kind: Ki

Data request: Report Ki for O=c1c(O[C@@H]2O[C@H](CO)[C@@H](O)[C@H](O)[C@H]2O)c(-c2ccc(O)c(O)c2)oc2cc(O)cc(O)c12 [Q-3-glc, quercetin-3-O-glucoside] please.
Data returned: 172 µM

Data request: For the compound shown here, O=C(O[C@@H]1Cc2c(O)cc(O)cc2O[C@@H]1c1cc(O)c(O)c(O)c1)c1cc(O)c(O)c(O)c1 [EGCG, epigallocatechin gallate] , give the reported Ki.
Data returned: 21.8 µM

Data request: // Ki lookup, key: COc1cc(/C=C/C(=O)O)ccc1O [FA, ferulic acid]
Data returned: 2370 µM

Data request: What Ki value was documented for this compound, Oc1cc(O)c2c(c1)O[C@H](c1ccc(O)c(O)c1)[C@H](O)[C@H]2c1c(O)cc(O)c2c1O[C@H](c1ccc(O)c(O)c1)[C@H](O)C2 [PC B2, procyanidin B2] ?
Data returned: 121 µM

Data request: Which Ki value is on record for Oc1cc(O)c2c(c1)O[C@H](c1ccc(O)c(O)c1)[C@H](O)[C@H]2c1c(O)cc(O)c2c1O[C@H](c1ccc(O)c(O)c1)[C@@H](O)C2 [PC B1, procyanidin B1] ?
Data returned: 225 µM

Data request: Bench note: what Ki did O=C(CCc1ccc(O)cc1)c1c(O)cc(O)cc1O[C@@H]1O[C@H](CO)[C@@H](O)[C@H](O)[C@H]1O [PHL, phlorizin] show?
Data returned: 573 µM

* * *

- Target desc: porcine pancreatic α-amylase (Sus scrofa, UniProt P00690)
- Assay notes: starch hydrolysis by α-amylase monitored by isothermal titration calorimetry (ITC)
- Format: biochemical
- Condition description: 100 μM polyphenol, 26 nM α-amylase, starch, 310 K; relative to control without inhibitor; read-out: (dQ/dt)max [%]
Hi there, I'd appreciate the recorded remaining activity at 100 µM for every entry that follows.
Write it as a number; the unit % goes unstated.

Data request: Give the measured remaining activity at 100 µM of Oc1cc(O)c2c(c1)O[C@H](c1ccc(O)c(O)c1)[C@H](O)C2 [EC, (−)-epicatechin] .
Data returned: 82

Data request: Consider the molecule COc1cc(/C=C/C(=O)O)ccc1O [FA, ferulic acid] and give its measured remaining activity at 100 µM.
Data returned: 94

Data request: Look up remaining activity at 100 µM: Oc1cc(O)c2c(c1)O[C@H](c1ccc(O)c(O)c1)[C@H](O)[C@H]2c1c(O)cc(O)c2c1O[C@H](c1ccc(O)c(O)c1)[C@H](O)C2 [PC B2, procyanidin B2]
Data returned: 56

Data request: Returns the measured remaining activity at 100 µM for the input molecule. Input: Oc1cc(O)c2c(c1)O[C@H](c1ccc(O)c(O)c1)[C@H](O)[C@H]2c1c(O)cc(O)c2c1O[C@H](c1ccc(O)c(O)c1)[C@@H](O)C2 [PC B1, procyanidin B1]
Data returned: 66

Data request: Recorded remaining activity at 100 µM of O=C(CCc1ccc(O)cc1)c1c(O)cc(O)cc1O[C@@H]1O[C@H](CO)[C@@H](O)[C@H](O)[C@H]1O [PHL, phlorizin] , please.
Data returned: 83

Data request: For the molecule O=c1c(O[C@@H]2O[C@H](CO)[C@@H](O)[C@H](O)[C@H]2O)c(-c2ccc(O)c(O)c2)oc2cc(O)cc(O)c12 [Q-3-glc, quercetin-3-O-glucoside] , what remaining activity at 100 µM is on record?
Data returned: 72

The reported numbers originate from paper PMC12810351.
